# method-notes: Cellular Toxicity (caspase-3) H-4-II-E (AID 663);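 also: cells exposed to compound for 16 hr before readout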
# test-settings: H-4-II-E rat hepatoma, scaled: DMSO 0%, 100 µM tamoxifen 100%; at 92.2 µM (top of the series)
Records with an inconclusive call do not appear.
We begin with a simple list: items and their reported caspase-3 activation.
A number alone suffices; assume %.

Value lookup for caspase-3 activation; key = O=C1NC(=O)c2cc([N+](=O)[O-])ccc21
-0.832

Find the recorded caspase-3 activation belonging to C=CCn1c(=O)n(CC=C)c(=O)n(CC=C)c1=O and report it.
0.22

Reported caspase-3 activation, compound CCCCC(=O)N(C)C : ____
-1.29

// lookup caspase-3 activation for O=CNc1ccccc1
0.272

Requested read-out: caspase-3 activation. Entry: Cc1c(C(=O)O)cccc1[N+](=O)[O-]
-0.261

Fill blank: measured caspase-3 activation of the compound Cc1ccc(Cl)cc1 is ____.
0.337

Which measured caspase-3 activation value corresponds to O=C(O)c1ccc(Cl)cc1Cl ?
0.226

Fill in: caspase-3 activation of CSc1ccc(C=O)cc1 is ___
2.78

Value lookup for caspase-3 activation; key = CO[Si](CCCNCCC[Si](OC)(OC)OC)(OC)OC
0.962

What does the record list as caspase-3 activation for Nc1cc(Cl)c([N+](=O)[O-])cc1O ?
1.74

State the recorded caspase-3 activation for this entry: CC(=O)c1ccccc1[N+](=O)[O-]
0.797

// returns reported caspase-3 activation for input Cc1c(N)cccc1N
0.28

---

Catalogue of caspase-3 activation values
# method-notes: Cellular Toxicity (caspase-3) Hek293 (AID 664);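 also: cells exposed to compound for 16 h at 37 °C before readout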
# test-settings: HEK293 caspase-3 activation, DMSO = 0%, 100 µM tamoxifen = 100%; at 92.2 µM (top of the series)
# Text: NIH Chemical Genomics Center [NCGC] NIH Molecular Libraries Screening Centers Network [MLSCN] National Institutes of Environmental Health Sciences [NIEHS] National Toxicology Program [NTP] We have developed a 1536-well cell-based assay for quantitative high throughput screening (qHTS) against a number of cell lines to determine in vitro caspase 3/7 of small molecules. […] 8. Detection; Luminescence; Viewlux plate reader […]
Records with an inconclusive call do not appear.
Reply numerically in %, unit not repeated.

[
  {
    "compound": "CCC(C)=O",
    "unit-symbol": "%",
    "caspase-3 activation": -2.5
  }
]

I have this compound here, CCC(C)(C)C , and I need its recorded caspase-3 activation.
-1.96

// returns reported caspase-3 activation for input CCCCC(C=O)CC (centres undefined)
1.03

Reported caspase-3 activation, compound C=Cc1ccccc1C=C : ____
1.48

Entry FC(F)(F)c1ccccc1Cl has what caspase-3 activation?
-1.13

Endpoint output: caspase-3 activation of O=C(O)c1c(Cl)cccc1Cl . Value?
0.49

Query (compound): CCCCC(CC)CNCC(CC)CCCC (centres undefined) ; field requested: caspase-3 activation
0.754

# caspase-3 activation lookup, item CCOCC(=O)O
1

Which measured caspase-3 activation value corresponds to Cc1cc(C)cc(N)c1 ?
-0.185

---

# method-notes: qHTS assay for cell viability of HEK293 cells (AID 743288); also: % is scaled to controls: 0 for no effect and ±100 for the full control effect; nearly all actives have a fitted effect of over 50% in size
# test-settings: ATP luminescence (CellTiter-Glo), 18 h, hits give low values
Results filed as inconclusive are left out.
Reported max response by item:
Numeric answer only, unit % assumed.

Take a look at these entries with their results.
[
  {
    "compound": "N#CC1(O)CCCCC1",
    "max response [%]": 1.77
  },
  {
    "compound": "CCCCCCCCC/C=C/CC1CC(=O)OC1=O (configuration not stated)",
    "max response [%]": 0.292
  },
  {
    "compound": "Cc1cc(C(=O)O)ccc1[N+](=O)[O-]",
    "max response [%]": -12
  },
  {
    "compound": "CCOC(=O)C(C)C(C)=O (configuration not stated)",
    "max response [%]": 2.57
  },
  {
    "compound": "CCOC(C)(C)C",
    "max response [%]": 9.83
  }
]

Record request: max response value, item Cc1cc(C)cc(O)c1
-5.39

Please give the measured max response for this compound: C[C@@H]1CC2(OC3C[C@@]4(C)C5=CC[C@H]6C(C)(C)C(O[C@@H]7OC[C@@H](O)[C@H](O)[C@H]7O)CC[C@@]67C[C@@]57CC[C@]4(C)C31)OC(O)C1(C)OC21 (some centres not stated)
-9.95

Entry CCCC(Cl)CCCC(Cl)CCC(Cl)CCC(Cl)CCC(Cl)CCCC(Cl)CCC (configuration not stated) : reported max response = ?
8.25

Return reported max response; argument: O=[N+]([O-])c1cccc(Cl)c1
-0.245

Endpoint output: max response of O=[N+]([O-])c1ccccc1CCO . Value?
-3.96

Which max response reading was recorded for the compound Cc1ccc2ncccc2c1 ?
-3.3

Please report the recorded max response for CCCCCCCCN .
-5.63

Report max response for O=CNc1ccccc1 please.
-2.01

Could you tell me which max response is on file for COC(=O)CS ?
3.47

Please look up its max response: C=CCCCCCC
3.39

Find the recorded max response belonging to Cc1ccc(Br)cc1 and report it.
-7.93

Value lookup for max response; key = CC(C)(O)C(=O)O
1.23

Looking for the measured max response of CN(C)CCCCl , can you help?
7.77

Requested read-out: max response. Entry: COc1ccc(OC)cc1
-1.36

Which max response is reported for this compound? Nc1cccc([N+](=O)[O-])c1
-2.77

Report max response for C[C@@H]1CC2(OC[C@]3(C)O[C@H]23)O[C@H]2C[C@@]3(C)[C@@H]4CC[C@H]5C(C)(C)C(O[C@@H]6OC[C@@H](O)[C@H](O)[C@H]6O)CC[C@@]56C[C@@]46CC[C@]3(C)[C@@H]12 (some centres not stated) please.
-22.4

---

# method-notes: Cell Viability - LYMP1-003 - Assay at 40 hr (AID 964); also: % is scaled to controls: 0 for no effect and ±100 for the full control effect; nearly all actives have a fitted effect of over 60% in size
# test-settings: LYMP1-003 lymphoblastoid viability; series mostly up to 92.2 µM
Inconclusive results are not listed. The source made the active and inactive calls. Calls follow the shape of the dose curve; as a rule, active = well fitted cell-killing curve with a large enough effect; inconclusive = small, poorly fitted or top-dose-only effect; inactive = flat fitted curve, though single readings scatter.
Hello, when you answer, please use one of the following outcomes: active, inactive

Solved cases below.
[
  {
    "compound": "C=Cc1ccccc1C=C",
    "answer-label": "inactive"
  },
  {
    "compound": "O=C(O)CNC(=O)c1ccc(CO)o1",
    "answer-label": "inactive"
  },
  {
    "compound": "C=C(C)C1CC=C(C)C(OC(C)=O)C1 (centres undefined)",
    "answer-label": "inactive"
  },
  {
    "compound": "O=C(O[C@@H](C(=O)O)[C@@H](OC(=O)c1ccccc1)C(=O)O)c1ccccc1",
    "answer-label": "inactive"
  },
  {
    "compound": "CC=O",
    "answer-label": "inactive"
  },
  {
    "compound": "Cc1ccccc1C=O",
    "answer-label": "inactive"
  },
  {
    "compound": "c1ccc2c(c1)Oc1ccccc1S2",
    "answer-label": "inactive"
  },
  {
    "compound": "c1ccc2[nH]cnc2c1",
    "answer-label": "inactive"
  }
]

// outcome(item) with item = COc1ccc(N)c(OC)c1
inactive

Field: outcome | Entry: NC(=O)NC(N)=O
inactive

---

# method-notes: Cell Viability - NIH 3T3 (AID 541);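 also: cells exposed to compound for 40 hours; plate controls were DMSO alone for no effect and tamoxifen positive control for full effect; nearly all actives have a fitted effect of over 25% in size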
# test-settings: NIH 3T3 cell viability, qHTS
Inconclusive results are not listed. The source made the active and inactive calls. Calls come from the whole dose curve; as a rule, active = well fitted cell-killing curve with a large enough effect; inconclusive = small, poorly fitted or top-dose-only effect; inactive = flat fitted curve, though single readings scatter.
quantity-name: outcome

[
  {
    "compound": "BrC/C=C/CBr",
    "observed-value": "inactive"
  },
  {
    "compound": "O=C(O)c1ccccc1Cl",
    "observed-value": "inactive"
  },
  {
    "compound": "CCOc1cccc(N)c1",
    "observed-value": "inactive"
  },
  {
    "compound": "c1ccc2c(c1)ccc1ncccc12",
    "observed-value": "inactive"
  },
  {
    "compound": "C=C(C)C1CC=C(C)C(OC(C)=O)C1 (stereo unspecified)",
    "observed-value": "inactive"
  }
]

Here's the next entry for you.
Can you look up the measured outcome of Cc1ccccc1C(N)=O for me?
inactive

---

# experimental-system: Peroxisome proliferator-activated receptor alpha (Homo sapiens)
# method-notes: qHTS assay for small molecule agonists of the peroxisome proliferator-activated receptor alpha (PPARalpha) signaling pathway (AID 651778); also: % of control where 0% means no effect
# test-settings: PathHunter PPARalpha complementation, chemiluminescence, 6 h; hits give high values
The entries below are paired with their reported max response.
Record the value in %, omitting the unit from your answer.

Examples with their reported max response follow.
[
  {
    "compound": "Cc1ccc([N+](=O)[O-])c(N)c1",
    "experimental-system": "Peroxisome proliferator-activated receptor alpha (Homo sapiens)",
    "max response (%)": -3.68
  },
  {
    "compound": "CC/C=C/C#N",
    "experimental-system": "Peroxisome proliferator-activated receptor alpha (Homo sapiens)",
    "max response (%)": 9.19
  },
  {
    "compound": "CNC(=O)c1ccccc1",
    "experimental-system": "Peroxisome proliferator-activated receptor alpha (Homo sapiens)",
    "max response (%)": -1.17
  }
]

Would you kindly share the measured max response for C=C(C)C1CC=C(C)C(OC(C)=O)C1 (stereo unspecified) ?
-3.58

Which value of max response has been reported for O=C(Cl)c1c(Cl)cccc1Cl in the records?
-3.46

Item under review: C=C(C)C(=O)OCCCCCCCCCC . Reported max response?
-0.186

Query: max response; subject: C=CCCCC
-2.42
